System: SK-MEL-28 melanoma
assay-procedure: NCI tumour cell line growth inhibition, 48 h
Provide the reported TGI of each item.
Unit µM implied. Number only.

For "O=C1C(c2ccc(Cl)cc2)=[N+]([O-])c2ccccc21" the compound record lists TGI as 28.5

GET /value?item= "COc1c(O)cc2oc3cc(O)c(CC=C(C)C)c(O)c3c(=O)c2c1C/C=C(\C)CCC=C(C)C" &field=TGI returns 10.3

Entry under test: "N#CCN(Cc1ccccc1)[C@H]1CCC[C@]1(O)/C=C/c1ccc2c(c1)OCO2" . Its TGI was 34

COC(=O)[C@H](C)[C@H]1CC[C@@](C)([C@H]2CC3C(C)(C)[C@H]4CCC(C)=C[C@H]4C[C@@]3(C)O2)OO1 (some centres not stated) yielded TGI of 31

Noted for "COC(=O)/C=C1\SC(=Nc2ccc(C(F)(F)F)cc2)N(CCc2c[nH]c3ccccc23)C1=O" : its TGI reads 3.55

GET /value?item= CCCCC1=C(C(=O)N2CCOCC2)C2(OCCO2)C1Cl (configuration not stated) &field=TGI returns 53.6

GET /value?item= "Cc1c(C(=O)CCl)c(=O)n(-c2ccccc2)n1C" &field=TGI returns 11.6

Input "CCN(Cc1ccc(F)cc1F)c1ccc(CO)c(Cl)c1" . Output TGI: 27.7

Reported TGI of "O=C(Nc1ccccc1)O/N=C1/CCCC/C1=C\c1ccccc1" : 31.8

---

Provide the reported TGI of each item.
System: LXFL 529 NSCLC
assay-procedure: NCI tumour cell line growth inhibition, 48 h

Recorded TGI for NC(=O)c1csc(C2O[C@@H](COP(=O)(O)OP(=O)(O)OC[C@H]3OC(n4cnc5c(N)ncnc54)[C@H](O)[C@@H]3O)[C@H](O)[C@@H]2O)n1 (some centres undefined) on LXFL 529 NSCLC was > 100 µM

Record COC(=O)C(=O)C(C(=O)C(=O)Nc1ccc([N+](=O)[O-])cc1[N+](=O)[O-])c1nc2ccc([N+](=O)[O-])cc2[nH]c1=O (centres undefined) ; system LXFL 529 NSCLC; TGI = > 100 µM

Form field TGI for item "O=C(Nc1ccccc1)O/N=C1/CCCC/C1=C\c1ccccc1" on LXFL 529 NSCLC: 21.4 µM

Item: "CC(=O)CC(=O)CCCC(=O)Nc1ccc(Cl)cc1Cl" | System: LXFL 529 NSCLC | TGI: > 100 µM

---

Tested on: DU-145 prostate
assay-procedure: NCI tumour cell line growth inhibition, 48 h
measure: GI50

Notebook: "COC(=O)/C=C1\SC(=Nc2ccc(C(F)(F)F)cc2)N(CCc2c[nH]c3ccccc23)C1=O" , GI50 read as 1.87 µM

What the record says about "CCN(CC)c1ccc2[nH]c3c(C(N)=O)cc(=O)c(=O)c=3oc2c1" : GI50 is 1.87 µM

Measured GI50 of CC1=C(C(=O)Nc2ccc(F)c(Cl)c2)C(c2cccc(O)c2)NC(=S)N1 (configuration not stated) : > 50 µM

Kindly note the recorded GI50 for "COc1ccc(C(=O)c2cc(OC)c(OC)c(OC)c2)cc1/C=C/C(=O)c1ccc(O)cc1" , which is 1.88 µM

Item: "COC(=O)c1ccc(-c2nc3cc(F)c(F)cc3nc2C#N)cc1" | GI50: 8.7 µM

The recorded GI50 for "O=C1C(Cl)=C(Oc2ccccc2)C(=O)c2ccccc21" is 16.2 µM

Record "COc1ccc(/C=C(\C#N)n2nnc3cc(Cl)ccc32)cc1" . Reported GI50: 1.71 µM
